- assayedTarget: Transient receptor potential cation channel subfamily M member 8 (Homo sapiens, UniProt Q7Z2W7)
- Sequence (Q7Z2W7 whole entry): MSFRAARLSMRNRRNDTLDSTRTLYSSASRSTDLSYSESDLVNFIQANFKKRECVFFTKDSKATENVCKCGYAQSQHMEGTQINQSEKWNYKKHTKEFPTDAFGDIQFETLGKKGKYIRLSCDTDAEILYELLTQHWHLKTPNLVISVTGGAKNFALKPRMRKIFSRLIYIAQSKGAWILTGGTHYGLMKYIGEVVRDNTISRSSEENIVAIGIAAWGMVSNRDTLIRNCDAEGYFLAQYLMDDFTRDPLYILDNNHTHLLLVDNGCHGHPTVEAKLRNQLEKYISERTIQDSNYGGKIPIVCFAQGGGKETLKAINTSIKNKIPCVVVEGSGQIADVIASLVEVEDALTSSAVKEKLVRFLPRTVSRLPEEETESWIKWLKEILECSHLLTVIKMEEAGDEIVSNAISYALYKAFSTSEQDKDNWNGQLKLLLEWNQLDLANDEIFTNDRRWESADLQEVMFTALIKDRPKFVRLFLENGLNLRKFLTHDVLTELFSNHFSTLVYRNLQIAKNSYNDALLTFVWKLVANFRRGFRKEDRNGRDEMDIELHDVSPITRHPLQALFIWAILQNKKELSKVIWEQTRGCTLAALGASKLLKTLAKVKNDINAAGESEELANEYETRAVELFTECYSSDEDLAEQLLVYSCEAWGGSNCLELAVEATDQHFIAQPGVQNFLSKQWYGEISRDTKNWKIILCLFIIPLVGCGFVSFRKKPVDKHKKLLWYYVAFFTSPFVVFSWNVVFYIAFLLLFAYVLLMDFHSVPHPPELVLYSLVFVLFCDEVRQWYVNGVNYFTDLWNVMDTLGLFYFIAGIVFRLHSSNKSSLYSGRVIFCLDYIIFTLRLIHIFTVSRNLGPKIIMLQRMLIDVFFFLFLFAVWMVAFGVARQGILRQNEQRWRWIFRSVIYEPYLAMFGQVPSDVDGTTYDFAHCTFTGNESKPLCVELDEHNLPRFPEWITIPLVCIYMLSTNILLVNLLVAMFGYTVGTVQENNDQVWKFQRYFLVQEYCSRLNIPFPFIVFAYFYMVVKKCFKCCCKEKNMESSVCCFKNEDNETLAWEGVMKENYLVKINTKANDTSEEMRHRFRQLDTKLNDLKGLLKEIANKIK
- assay: Agonist activity at human TRPM8 expressed in HEK293 cells assessed as increase in intracellular calcium level after 15 mins by Fluo-3-AM dye-based fluorescence assay
- Format: cell-based
- conditionContext: read-out: EC50
measuredParameter: EC50 (nM)

• Cc1ccc(OCC(=O)N(C)Cc2cccs2)cc1 = 400

[A] C=CCN(Cc1cccs1)C(=O)COc1ccc(C)cc1
[B] CCN(Cc1cccs1)C(=O)COc1ccc(F)cc1
[C] Cc1ccc(OCC(=O)N(CCO)Cc2cccs2)cc1
Query: Put the items in order so that reported EC50 rises from first to last. Show the ranking through the labels, in the order asked for.
Response: A, B, C

[I] CCN(Cc1cccs1)C(=O)COc1ccc(C)cc1
[II] CCN(Cc1cccn1C)C(=O)COc1ccc(C)cc1
[III] Cc1ccc2oc(C(=O)N(Cc3cccs3)c3ccn[nH]3)cc2c1
[IV] CCN(Cc1cncs1)C(=O)COc1ccc(C)cc1
[V] CCN(Cc1ccoc1)C(=O)COc1ccc(C)cc1
Query: Put the items in order so that reported EC50 rises from first to last. Show the ranking through the labels, in the order asked for.
Response: I, III, V, IV, II

[1] CON(Cc1cccs1)C(=O)COc1ccc(C)cc1
[2] Cc1ccc(/C=C/C(=O)N(Cc2cccs2)c2ccn[nH]2)cc1
Query: I'd appreciate it if you could identify which of 1 and 2 has the greater EC50. Bench note: the answer is the label of the chosen record.
Response: 1

[1] CCN(Cc1cccs1)C(=O)c1cc2cc(C)ccc2o1
[2] CCN(Cc1cccs1)C(=O)COc1ccc(Cl)cc1
Query: I'd appreciate it if you could identify which of 1 and 2 has the greater EC50. Bench note: the answer is the label of the chosen record.
Response: 1
(1: 120 nM, 2: 39 nM)

Values compiled from ChEMBL document CHEMBL4052716.
